Test system: OVCAR-3 ovarian
Assay protocol: NCI-60 one-dose screen, 48 h (100 = growth as untreated, 0 = no growth, -100 = all killed)
Settings: 10 µM unless noted
This is part of a sample that, as a whole, favours compounds with a hit. Of some 83,000 tested, about 20% had one in any assay. Active and inactive are the calls of the source. Rule for the calls: active = growth percent below 10; inactive = the rest.

# Compound, growth
records = [
    ("COc1nc2ccccc2cc1-c1nc2c(cnn2-c2ccccc2)c(=O)[nH]1", "7.05% (active)"),
    ("CN(C)c1ccc(/C=N\\Nc2cc(=O)[nH]c3ccc(Cl)cc23)cc1", "108% (inactive)"),
    ("CN1CCN(c2ccc(-c3ccc4ncc(C#N)c(Nc5ccc(F)c(Cl)c5)c4c3)cc2)CC1", "59.8% (inactive)"),
    ("CCCCCCNC(=O)Oc1ccc(/C(=C(\\C)c2ccc(Cl)cc2)c2ccc(OCCN3CCCCC3)cc2)cc1", "58.4% (inactive)"),
    ("N#CC1=C(N)Oc2c(sc3c(Br)cccc23)C1c1ccc(Br)cc1 (stereo not given)", "-8.57% (active)"),
    ("Cc1nc2ccccc2n1CC1C(=O)NC(=O)NC1=O", "119% (inactive)"),
    ("COc1cc2cc(Oc3ccc(NC(=O)Nc4cccc(C(F)(F)F)c4)cc3)c(C)nc2cc1OCCN1CCOCC1", "28.6% (inactive)"),
    ("CN(C)CCS(=O)(=O)Nc1cc(-c2ccc3ncc(C#N)c(Nc4ccc(F)c(Cl)c4)c3c2)cnc1Cl", "-59.8% (active)"),
    ("CCOC(=O)c1[nH]c(C)c(C(=O)OCc2ccccc2C#N)c1C", "62.5% (inactive)"),
    ("C#C[C@]1(O)CC[C@H]2[C@@H]3CC=C4c5sc(Nc6cc(F)ccc6F)nc5CC[C@]4(C)[C@H]3CC[C@@]21C", "-22.7% (active)"),
    ("O=C(CSc1nccc(Nc2ccc(S(=O)(=O)Nc3nccs3)cc2)n1)c1ccc(C(F)(F)F)cc1", "112% (inactive)"),
    ("Cc1ccc(-c2cnc3sc(C(=O)NCCc4ccccc4)c(C)n23)cc1", "79.4% (inactive)"),
    ("O=C1/C(=C/c2ccc(F)cc2)Sc2c(Br)cccc21", "86.3% (inactive)"),
    ("c1ccc(CO[C@H]2CO[C@H]3[C@@H]2OC[C@@H]3Oc2ccc(Nc3ncnc4ccsc34)cc2)cc1", "93.7% (inactive)"),
    ("CC(=O)CC(c1cccs1)c1c(-c2ccccc2)[nH]c2ccccc12 (stereo not given)", "86.4% (inactive)"),
    ("Cc1c(C(=O)N[C@@H](Cc2ccccc2)C(=O)C(=O)NCc2ccc(F)cc2)[nH]c2ccccc2c1=O", "102% (inactive)"),
    ("CCOC(=O)CCN(C(=O)Nc1ccccc1)C1CCCCC1", "118% (inactive)"),
    ("CCOC(=O)/C(C#N)=C\\Nc1ccc2ncnc(Nc3ccc(Cl)cc3Cl)c2c1", "67.6% (inactive)"),
    ("COc1ccc(-c2nnc(COc3ccc(Cl)cc3Cl)o2)cc1OC", "1.98% (active)"),
    ("c1ccc2cc(C[n+]3ccn(CCCCCCn4cc[n+](Cc5ccc6ccccc6c5)c4)c3)ccc2c1", "62.4% (inactive)"),
]
